Please provide measured GI50 for the entries that follow.
Tested on: NCI-H23 lung
Assay: NCI tumour cell line growth inhibition, 48 h

Past entries and their recorded results:
structure_as_smiles | endpoint_name | experimental_result
Cc1nn(-c2nc3ccccc3s2)c(C)c1Oc1ccccc1O | GI50 | 12.3 µM
Oc1ccc(-c2nnc3sc(-c4ccc(F)c(Oc5ccccc5)c4)nn23)cc1 | GI50 | 29.3 µM
CC(=O)[CH-]C(=O)c1ccccc1.CC(=O)[CH-]C(=O)c1ccccc1.CC[O-].CC[O-].[Zr+4] | GI50 | > 100 µM
COc1cc(C(=O)c2ccc3c(c2)OCO3)cc(OC)c1OC | GI50 | 4.93 µM

Attention now shifts to the item below.
Readout GI50 for COc1cc2c3c(n(CCCCOC(=O)C(F)(F)F)c(=O)c2cc1OC)-c1cc2c(cc1C3=O)OCO2 , test system NCI-H23 lung, was > 100 µM

---

Please provide measured TGI for the entries that follow.
Test system: T-47D breast
Experiment: NCI tumour cell line growth inhibition, 48 h
Give bare numbers, in µM.

compound | tested_target | unit_spec | TGI
COc1cc(O)c2c(O)c3c(c4c2c1[C@]1(C4)C(C)=CCCC1(C)C)[C@H](O)[C@@]1(O)CC(=O)C(C(N)=O)=C(O)[C@@]1(O)C3=O | T-47D breast | µM | 1.81
N#C/C(=C\c1ccc(-c2ccc(Cl)cc2)o1)C(=O)Nc1ncc(Cc2ccc(Cl)cc2)s1 | T-47D breast | µM | 5.2
CCN(CC)CCCC(C)Nc1cnc(C(=O)Nc2ccc(Cl)c3cccnc23)cn1 (stereo not drawn) | T-47D breast | µM | 2.97
C/C=C(\C)C(=O)N[C@H]1CC[C@]2(C)C3CC[C@@]4(C)C(CC[C@@H]4C(C)N(C)C)C3CCC2[C@H]1OC(C)=O (stereo partly drawn) | T-47D breast | µM | 5.42
COc1cc(-c2nc(Nc3nc4ccccc4[nH]3)nc(N)c2C#N)cc(OC)c1OC | T-47D breast | µM | 52.8
Cc1cc(C)nc(NS(=O)(=O)c2ccc(Nc3nncc(=O)n3N)cc2)n1 | T-47D breast | µM | 38.3

Record TGI per entry; entries follow.
1. CC(=O)N1N=C2/C(=C/c3ccccc3)CC(C)CC2C1c1ccccc1 (stereo not drawn)
2. COC(=O)NC1C(C)OC(OC2C/C=C(/C)C3C=CC4C(OC5CC(OC6CC(O)C(OC7CC(O)C(OC)C(C)O7)C(C)O6)C(O)C(C)O5)C(C)CC(C)C4C3(C)/C(O)=C3\C(=O)OC4(CC(C)C(CO)=CC4/C=C\2C)C3=O)CC1(C)[N+](=O)[O-] (stereo not drawn)
3. CC1(c2ccc(F)cc2)CC(c2ccc(F)cc2)=C(C#N)C(=C(C#N)C#N)N1 (stereo not drawn)
4. Oc1ccc(-c2nnc3sc(-c4ccc(F)c(Oc5ccccc5)c4)nn23)cc1

34.7
31.8
31.7
76.3

---

System: HOP-92 NSCLC
Assay: NCI tumour cell line growth inhibition, 48 h
endpoint_name: TGI (µM)
Give bare numbers, in µM.

Past entries and their recorded results:
molecule | TGI / µM
COC1=C2CC(C)CC(OC)[C@@H](OC(=O)CCN)[C@H](C)/C=C(\C)C(OC(N)=O)C(OC)/C=C\C=C(/C)C(=O)NC(=CC1=O)C2=O (some centres undefined) | 2.05
CC1=C[C@H]2c3c(c(O)c(O)c4oc5c(C)cccc5c(=O)c34)[C@H](c3cc(O)c(O)c4oc5c(C)cccc5c(=O)c34)[C@H]2C(C)(C)C1 | 6.69
Oc1ccc2cc(Br)ccc2c1-c1c(O)ccc2cc(Br)ccc12 | 7.93

Attention now shifts to the item below.
Form field TGI, entry CCN(CC)CC(=O)Nc1c(C(N)=O)nnn1Cc1cc(Cl)c(C(=O)c2ccc(Cl)cc2)c(Cl)c1 : 53.2

---

Tested on: OVCAR-3 ovarian
Experiment: NCI tumour cell line growth inhibition, 48 h
Tag: Y if measured TGI is not below 20 µM, N if it is.

Examples from the recorded data:
compound | tested_target | class
CC[C@@H](C(=O)[C@@H](C)[C@@H](O)[C@H](C)[C@@H]1O[C@@H]([C@@H](CC)C(=O)O)CC[C@@H]1C)C1O[C@]2(C=CC(=O)[C@]3(CC[C@@](C)([C@H]4CC[C@](O)(CC)[C@H](C)O4)O3)O2)[C@H](C)C[C@@H]1C (stereo partly specified) | OVCAR-3 ovarian | N
COC1=C2CC(C)CC(OC)[C@@H](OC(=O)CCN)[C@H](C)/C=C(\C)C(OC(N)=O)C(OC)/C=C\C=C(/C)C(=O)NC(=CC1=O)C2=O (stereo partly specified) | OVCAR-3 ovarian | N
CCOc1cccc(/C=N/NC(=O)c2ccc(Nc3ccnc(C(F)(F)F)c3)cc2)c1O | OVCAR-3 ovarian | Y
C/C=C/c1c(O)c(=O)c2c(OC)cc(OC)c3c4c(OC)cc(OC)c5c(=O)c(O)c(/C=C/C)c(c1c23)c54 | OVCAR-3 ovarian | N

Can CCOC(=O)c1cc2c(ccc3cc(C(=O)OCC)[nH]c32)[nH]1 be said to have TGI at or above 20 µM?
Y

Can CSc1c(C(=O)Nc2ccc(Cl)cc2)c(N)nn1-c1ccccc1 be said to have TGI at or above 20 µM?
Y

Can CC1=NN(c2nc(N)nc(CCl)n2)CC1 be said to have TGI at or above 20 µM?
Y

Can CC(=O)C1C(=O)C(=O)N(c2cccc(C)c2C)C1=O (stereo unspecified) be said to have TGI at or above 20 µM?
Y

Can COc1cc(C(=O)c2ccc3c(c2)OCO3)cc(OC)c1OC be said to have TGI at or above 20 µM?
N

Can Cc1ccc([N+](=O)[O-])c2c(NCCNC(=O)Cn3ccnc3[N+](=O)[O-])ccnc12 be said to have TGI at or above 20 µM?
Y

Can Oc1ccc(-c2nnc3sc(-c4ccc(F)c(Oc5ccccc5)c4)nn23)cc1 be said to have TGI at or above 20 µM?
Y

Can Cc1cc2c(cc1Cl)SC1=CC(=O)N(c3ccccc3)C1=NS2(=O)=O be said to have TGI at or above 20 µM?
Y

Can COc1cc(/C=C2\[C@H]3c4c(c(OC)c(C)c(OC)c4OC)C[C@@H](C(=O)N2Cc2ccccc2)N3C(=O)OCC(C)C)c(OC)c(C)c1OC be said to have TGI at or above 20 µM?
Y

---

Test system: NCI-H460 lung
Assay: NCI tumour cell line growth inhibition, 48 h
Where a SMILES comes first, the peptide text is derived from it. The star is where a group is joined. Boc = CC(C)(C)OC(=O)*
Please provide measured TGI for the entries that follow.

Past entries and their recorded results:
molecule | tested_target | experimental_result
C/C(=C\C(C)COCc1ccccc1)[C@H](COCc1ccccc1)OCc1ccccc1 (stereo partly drawn) | NCI-H460 lung | > 100 µM
CC(C)=CC1C(COC(=O)c2cc3c(cc2Cl)OCO3)C1(C)C (stereo not drawn) | NCI-H460 lung | > 100 µM
CCSc1nc(N)c2c(-c3ccc(OC)c(OC)c3)c3c(nc2n1)CCCC3 | NCI-H460 lung | > 100 µM

Record TGI per entry; entries follow.
1. Oc1ccc(-c2nnc3sc(-c4ccc(F)c(Oc5ccccc5)c4)nn23)cc1
2. CCN1CCC(O)(c2ccc(C)cc2)C(C(=O)c2ccc(C)cc2)C1 (stereo not drawn)

1: > 100 µM; 2: > 81.1 µM

Record TGI per entry; entries follow.
1. CC(NC(=O)C(NC(=O)OC(C)(C)C)C(C)C)C(=O)N1CCCC1C(=O)NCC(=O)NC(C(=O)NCC(=O)O)C(C)C (stereo not drawn) (Boc-VAPGVG-OH; configuration not given here)
2. COc1cc2c(cc1OCCCOc1cc(-c3ccc(F)cc3)nc(C)n1)N=C[C@@H]1CCCN1C2=O
3. CN1C(=O)c2ccccc2NC(=O)c2cnn(C)c21
4. CN(C)c1ccc(-c2cc(=O)c3cc4c(cc3[nH]2)OCO4)cc1
5. O=C1/C(=C/C=C/c2ccccc2)N=C(c2ccccc2)N1C1Nc2cc3c(cc2S1)NC(N1C(=O)/C(=C/C=C/c2ccccc2)N=C1c1ccccc1)S3 (stereo not drawn)
6. COc1cc(C(=O)c2ccc3c(c2)OCO3)cc(OC)c1OC
7. CS(=O)(=O)NNS(=O)(=O)c1cccc([N+](=O)[O-])c1
8. COc1cccc(C2c3cc4c(cc3OC(C)(O)C2C)OCO4)c1O (stereo not drawn)

1: > 100 µM; 2: > 100 µM; 3: > 100 µM; 4: > 100 µM; 5: > 100 µM; 6: > 100 µM; 7: > 100 µM; 8: 30.6 µM

---

Tested on: RPMI-8226 leukemia
Test: NCI tumour cell line growth inhibition, 48 h
endpoint_name: TGI

compound | experimental_result
COC(=O)CCC(=O)CC(=O)C1=NS(=O)(=O)c2nc(S(N)(=O)=O)c(Cl)cc2N1 | > 100 µM

Record TGI per entry; entries follow.
1. CC(C)(C)OC(=O)N(O)[C@@H]1C=C[C@H](n2cnc3c(N)ncnc32)C1
2. O=C1/C(=C/C=C/c2ccccc2)N=C(c2ccccc2)N1C1Nc2cc3c(cc2S1)NC(N1C(=O)/C(=C/C=C/c2ccccc2)N=C1c1ccccc1)S3 (stereo not given)
3. O=[N+]([O-])c1ccc(Br)c([N+](=O)[O-])c1
4. Cn1c2ccccc2c(=S)c2ccccc21
5. c1ccc(Cn2cc3c(c2-c2ccccc2)CCc2cnoc2-3)cc1
6. CC(C)(C)NCc1cc(Nc2ccnc3cc(Cl)ccc23)cc(-c2ccc(Cl)cc2)c1O
7. O=c1cc(-c2ccccc2)[nH]c2cc(F)c(F)cc12
8. CN(NC(=O)c1ccco1)C1=NCCN1

> 100 µM
57 µM
5.51 µM
> 100 µM
> 100 µM
4.12 µM
> 100 µM
> 100 µM

Form field TGI, entry COc1ccc(N2C(=O)C3c4[nH]c5ccc(OC)cc5c4C4CCC(C(C)(C)C)CC4C3C2=O)cc1 (stereo not given) : > 100 µM
